Consider the following compounds; for each one, report its Pre-emergence action against ABUTH (herbicidal activity in percent).
tested on: ABUTH; experiment: Pre-emergence herbicidal action against ABUTH; format: in vivo, Abutilon theophrasti; details: dosage 20 g/ha, scored visually after 3 weeks vs untreated controls, 100% = plants have died, 0% = like control plants
Your answer should be a plain number; it is taken to be in %.

q: Please state recorded Pre-emergence action against ABUTH (herbicidal activity in percent) (tested on ABUTH) of `CCNC(=O)c1c(C(F)F)ccc(C(=O)Nc2nnnn2CC)c1SC`
a: 100

q: Moving on to `CCn1nnnc1NC(=O)c1ccc(C(F)F)c(C(=O)NC2CC2)c1OC`
a: 100

q: Thanks! And `CCCNC(=O)c1c(C(F)F)ccc(C(=O)Nc2nnnn2CC)c1Cl` ?
a: 100

q: Check CCn1nnnc1NC(=O)c1ccc(C(F)F)c(C(=O)NC(C)C2CC2)c1Br (centres unmarked) too.
a: 100

q: Next entry: `CCn1nnnc1NC(=O)c1ccc(C(F)F)c(C(=O)NCC(F)(F)F)c1Br`
a: 80
